Exercise: for every item that follows, state its recorded OD405 nm.
system.name: T1, recombinant E1/E2 heterodimer protein (genotype 1a) (hepatitis C virus genotype 1a, UniProt P26664 192-383; P26664 384-746, limits assumed)
T1 construct: also called E1/E2 in complex; recombinant E1/E2 antigen
procedure.text: ELISA, E1/E2 heterodimer coated; crude periplasmic Fab
The reply should be a number in OD405 nm, with the unit left off.

Given the entry Fab clone 2b-3 (Fab, V domains shown, Human Fab (gamma1 Fd + kappa), crude periplasmic preparation, approx. 1.0 ug Fab/ml) VH: EVQLLESGAEVKKPGASVTVSCKASGYSFSDYYIHWVRQAPGQGLEWMGIINPSAGTTTYKQKFQHRVTLTRDTSTNTAYMKLYNLTPDDTAIFFCARGSGGSRSEYDYWGQGTLVTVSS VL: AELTQSPSSLSASVGDGVTITCRASQSISTYLNWYQQKPGKAPKLLMYAASTLQSGVPSRFSGSGSGTDFTLTISSLQPEDFAAYYCQQARSFPYTFGQGTRLEIR , report its measured OD405 nm.
0.19

Given the entry Fab clone 2a-32 (Fab, V domains shown, Human Fab (gamma1 Fd + kappa), crude periplasmic preparation, approx. >1 ug Fab/ml) VH: VQLLEQSGGDLVKPGGSLRLSCAASGFTFTDYYMNWIRQAPGKGLEWIAYISIGSDDTKYAASVKGRFSISRDNAKNSLYLQMNSLRVEDTAVYYCGRGGGYCSGGNCYSSDYWGQGALVTVSS VL: AELTQSPSSLSAFTGDRVSITCRASQGIGNSLAWYQQKPGHVPKVLIYDASTLSSGAPSRFSGSGSGTDFTLTISGLQPEDVATYYCQKYKSAPLTFGGGTKVEIR , report its measured OD405 nm.
0.09

Given the entry Fab clone 2b-1 (Fab, V domains shown, Human Fab (gamma1 Fd + kappa), crude periplasmic preparation, approx. 0.94 ug Fab/ml) VH: EVQLLESGPRLVKPSQTLSLTCTVSGDSLNNASHYWAWIRQPAGKGLEWIGRIHRGGSTNYNPSLQSRVTISMDESKNQFSLRLNSVTAADTAVYYCARDPPKAWGPGILVTVSS VL: AELTQSPSSLSASVGDRVTIACRASQSISNHLNWYQQKPGKAPKVLIYAASSLQSGVPSRFSGSGSGTDFTLTISSLQPEDFAIYYCQQSYSNADFGPGTKVDIK , report its measured OD405 nm.
0.12
